System: SLK
Settings: concentration: 1 μM, replicates: in singlicate; n = 1;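 note: KINOMEscan kinase panel screen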
Binning scheme for %Inh: low end (below 30%), middle (30% to below 70%), high end (70% or more)

- CN(C)c1ncnc2nc[nH]c12: low end
- CC(C)c1nc(-c2ccc(F)c(NS(=O)(=O)c3c(F)cccc3F)c2)c(-c2ccnc(Nc3ccc(N4CCOCC4)nc3)n2)s1: high end
- Cc1ccc(Nc2ccnc(Nc3ccc(C)c(F)c3)n2)cc1O.Cl: middle
- O=C1NC(=O)C(c2ccccc2Cl)=C1Nc1cccc(Cl)c1: high end
- COC(=O)Nc1nc2cc(Oc3ccc(NC(=O)Nc4cccc(SC)c4)cc3)ccc2[nH]1.Cl: middle
- COc1ccc(C2=C(Nc3cccc(O)c3)C(=O)NC2=O)cc1: low end
- Cc1cccc(Nc2nc(NCCN)ncc2C(N)=O)c1: middle
- Cl.N#CCc1ccc(Nc2nccc(Nc3ccc(Oc4ccccc4)cc3)n2)cc1: low end
- COc1cc(Nc2nccc(N3CCC(NS(=O)(=O)c4ccc(NC(C)=O)cc4)CC3)n2)cc(OC)c1OC: middle
- Cc1cc(-c2c(-c3ccc(F)cc3)ncn2CCCN2CCOCC2)nc(N)n1: low end
- CC(C)(C)c1ccc(C(=O)Nc2cn3cc(-n4ccnc4)ccc3n2)cc1: low end
- COC(=O)Nc1nc2ccc(Oc3ccc(NC(=O)Nc4cc(C(F)(F)F)ccc4F)cc3)cc2[nH]1.Cl: high end
- O=C(O)C(F)(F)F.O=c1[nH]ccc2nc(N[C@@H]3CCNC3)nc(Nc3cc(Cl)cc(Cl)c3)c12: high end
- COc1cccc(CC(=O)N2CCc3cc(-c4cn(C)c5ncnc(N)c45)ccc32)c1: middle
- Nc1cccc(-c2ccc3c(N)n[nH]c3c2)c1: low end
- Cn1cc(-c2ccc3c(c2)CCN3C(=O)Cc2cc(F)cc(F)c2F)c2c(N)ncnc21: middle
- Cc1ccc(-c2ccc3occ(-c4ccc(S(C)=O)cc4)c3c2)nn1 (centres unmarked): low end
- O=C(O)C(F)(F)F.O=c1[nH]ccc2nc(N[C@@H]3CCNC3)nc(Nc3ccc4c(c3)S(=O)(=O)CC4)c12: high end
- NCCC(NC(=O)c1cc(Br)c(-c2ccnc3[nH]ccc23)s1)c1ccccc1.O=C(O)C(F)(F)F.O=C(O)C(F)(F)F (centres unmarked): low end
- Cn1cc(-c2ccc3c(c2)CCN3C(=O)Cc2cc(F)cc(C(F)(F)F)c2)c2c(N)ncnc21: middle

---

Test system: TAK1
Construct: gene MAP3K7
Details: concentration: 1 μM, replicates: in singlicate; n = 1
value type: %Inh (%)

* Cc1ccc(NC(=O)c2ccc(Cl)c(Cl)c2)cc1-c1ccc(C(=O)Nc2ccncc2)cc1 | 12
* COC(=O)Nc1nc2ccc(Oc3ccc(NC(=O)Nc4cc(C(F)(F)F)ccc4F)cc3)cc2[nH]1.Cl | 94.7
* COC(=O)Nc1nc2cc(Oc3ccc(NC(=O)Nc4cccc(SC)c4)cc3)ccc2[nH]1.Cl | 36
* CSc1ccc(NC2=C(c3ccc(Cl)cc3)C(=O)NC2=O)cc1 | 39
* N#Cc1cnc2cc(-c3cnc(CNCCN4CCOCC4)s3)ccc2c1Nc1ccc(Oc2ccccc2)cc1 | 12

---

Tested on: NEK11
Details: concentration: 1 μM, replicates: in singlicate; n = 1
value type: %Inh (%)

* O=C1NC(=O)C(c2ccccc2Cl)=C1Nc1cccc(Cl)c1 [SB-342409] | 0
* Cn1cc(-c2ccc3c(c2)CCN3C(=O)Cc2cc(F)cc(F)c2F)c2c(N)ncnc21 [GSK2634140] | 38
* Cl.N#CCc1ccc(Nc2nccc(Nc3ccc(Oc4ccccc4)cc3)n2)cc1 [GW639905] | 0
* Cc1ccc(O)cc1Nc1ccnc2cc(-c3ccc(CN4CCCCC4)o3)ccc12 [GW557777] | 0
* Cc1ccc(-c2ccc3occ(-c4ccc(S(C)=O)cc4)c3c2)nn1 (stereo not drawn) | 0
* Cc1nn2c(=O)cc(N3CCO[C@H](C)C3)nc2n1Cc1cccc(Cl)c1Cl [GSK2373693] | 0
* c1ccc(Oc2ccc(Nc3ccnc4cc(-c5ccc(CN6CCCCC6)o5)ccc34)cc2)nc1 [GW567143] | 0
* Nc1ncc(-c2cn[nH]c2)c2scc(-c3ccc4c(c3)CCN4C(=O)Cc3ccccc3)c12 [GSK2593067] | 87
* Cl.Cl.NCC(NC(=O)c1cc(-c2cccnc2)c(-c2ccnc3[nH]ccc23)s1)c1ccccc1 (stereo not drawn) [GSK1323434] | 15

All figures here come from paper PMC5540273.
